- System: S6K1;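 note: KINOMEscan kinase panel screen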
- RECORDED CONDITIONS: concentration: 1 μM, replicates: in singlicate; n = 1
%Inh below 10% gives not met; %Inh at or above it gives met.

| COMPOUND | CATEGORY |
| --- | --- |
| Cn1cc(-c2ccc3c(c2)CCN3C(=O)Cc2ccccc2Cl)c2c(N)ncnc21 | met |
| CNc1ncnc2[nH]ncc12 | met |
| c1ccc(-c2cc(-c3c[nH]nc3-c3ccccn3)ccn2)cc1 | not met |
| COc1cc2c(cc1OC[C@@H](O)CO)ncc1c3ccc(C#N)cc3[nH]c21 | met |

Query: Hello, I need to know if Cc1c(Cn2c(C)nn3c(=O)cc(N4CCOC(C)C4)nc23)cccc1C(F)(F)F (stereo not drawn) has measured %Inh not below 10%. Thanks!
Response: not met

Query: Decide: is the reported value of %Inh for [2H]C([2H])(c1cccc(C(F)(F)F)c1C)n1ccn2c(=O)nc(N3CCOCC3)cc12 equal to or greater than 10%?
Response: met

Query: Check this compound for %Inh at or above 10%: Cc1cccc(-c2nc(-c3ccc(S(C)(=O)=O)cc3)sc2-c2ccncc2)c1
Response: met

Query: hey, is %Inh for this one >= 10%? Cc1cccc(Cn2ccn3c(=O)cc(N4CCOCC4)nc23)c1
Response: not met

Query: // inclusive: %Inh at least 10%? input: Cc1c2ccc(N(C)c3ccnc(Nc4cccc(S(N)(=O)=O)c4)n3)cc2nn1Cc1ccccc1.Cl.Cl
Response: met

Query: Determine whether measured %Inh meets or exceeds 10% for Nc1nc(-c2ccc3c(N)n[nH]c3c2)cc(N2CCCC2)n1
Response: not met

Query: Is the recorded value of %Inh equal to or greater than 10% for this compound? N#Cc1c(N2CCOCC2)sc(-c2ccn[nH]2)c1-c1ccc(Cl)cc1
Response: not met

Query: Form field: %Inh at least 10%? Entry: COc1ccc(Nc2nccc(N3CCC(NC(=O)Nc4cc(C)ccc4C)C3)n2)cc1 (stereo not drawn)
Response: met

Query: Does %Inh meet or surpass 10% for COc1ccc(S(=O)(=O)NC2CCN(c3cc(C)nc(Nc4cccc(C#N)c4)n3)CC2)cc1.O=C(O)C(F)(F)F ?
Response: not met

Query: Does the reported %Inh for CSc1ccc(-c2cc3ncnc(SCC(=O)O)c3s2)cc1 fall at or above the 10% mark?
Response: not met

Query: Does the reported %Inh for O=C(NOCC1CC1)c1ccc(F)c(F)c1Nc1ccc(I)cc1Cl fall at or above the 10% mark?
Response: not met

Query: In plain terms: is recorded %Inh at least 10% for CCCCCc1nc2c(N)ncnc2n1CCCCC ?
Response: met

Query: Confirm if %Inh reported for the compound O=C1Cc2cc(Nc3nc(NCc4cccc(S(=O)(=O)C(F)(F)F)c4)ncc3C(F)(F)F)ccc2N1 is 10% or above.
Response: not met

Query: Evaluate NCC(NC(=O)c1cc(-c2cn[nH]c2)c(-c2ccnc3[nH]ccc23)s1)c1ccccc1.O=C(O)C(F)(F)F.O=C(O)C(F)(F)F (stereo not drawn) : %Inh at minimum 10%?
Response: met
